STUDY TARGET: TGFBR1 (Homo sapiens)
Sequence (P36897 34-503): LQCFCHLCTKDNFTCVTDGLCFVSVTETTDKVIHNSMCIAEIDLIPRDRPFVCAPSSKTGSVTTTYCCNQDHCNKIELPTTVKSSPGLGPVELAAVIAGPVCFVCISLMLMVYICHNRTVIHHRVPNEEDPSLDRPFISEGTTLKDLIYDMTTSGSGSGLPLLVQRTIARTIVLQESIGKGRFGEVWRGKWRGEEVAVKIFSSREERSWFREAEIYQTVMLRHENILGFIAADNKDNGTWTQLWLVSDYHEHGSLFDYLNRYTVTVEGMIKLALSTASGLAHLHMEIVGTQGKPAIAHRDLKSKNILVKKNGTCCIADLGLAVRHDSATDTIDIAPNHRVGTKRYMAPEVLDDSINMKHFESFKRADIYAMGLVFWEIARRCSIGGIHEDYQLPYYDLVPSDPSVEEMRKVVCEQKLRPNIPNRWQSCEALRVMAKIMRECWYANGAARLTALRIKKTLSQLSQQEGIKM
TEST DESCRIPTION: Kinase profiling (radiometric filter-binding)
Assay type: biochemical
EXPERIMENTAL CONDITIONS: TGFBR1, 1 µM inhibitor; read-out: Residual activity, %
Square brackets hold non-standard residues; d marks the D form. Peptide text beside a SMILES is read from it. * marks the point of attachment. X3 = O=C(CCCCCNCc1nc2c(sc3cc(Br)cnc32)c(=O)[nH]1)*
Known remaining activity at 1 µM of a selection of compounds
Report as a plain number; the unit % is understood.

Worked cases, answers included:
1. N=C(N)NCCC[C@@H](NC(=O)CCCCCNCc1nc2c(sc3cc(Br)cnc32)c(=O)[nH]1)C(=O)N[C@H](CCCNC(=N)N)C(=O)N[C@H](CCCNC(=N)N)C(=O)N[C@H](CCCNC(=N)N)C(=O)N[C@H](CCCNC(=N)N)C(=O)N[C@H](CCCNC(=N)N)C(=O)N[C@H](CCCCN)C(N)=O [ARC-3126, BPTP-Ahx-(D-Arg)6-D-Lys-NH2] (X3-[dR][dR][dR][dR][dR][dR][dK]-NH2): 109
2. N=C(N)NCCC[C@@H](NC(=O)CNC(=O)[C@@H](CCCNC(=N)N)NC(=O)[C@@H](CCCNC(=N)N)NC(=O)CCCCCCCNCc1nc2c(sc3ccc(Br)cc32)c(=O)[nH]1)C(=O)N[C@H](CCCCN)C(N)=O [Compound 2, BBTP-Aoc-(D-Arg)2-Gly-D-Arg-D-Lys-NH2]: 106

remaining activity at 1 µM for N=C(N)NCCC[C@@H](NC(=O)CNC(=O)[C@@H](CCCNC(=N)N)NC(=O)[C@@H](CCCNC(=N)N)NC(=O)CCCCCCCNCc1nc2c(sc3cc(Br)cnc32)c(=O)[nH]1)C(=O)N[C@H](CCCCN)C(N)=O [Compound 1, BPTP-Aoc-(D-Arg)2-Gly-D-Arg-D-Lys-NH2] ? 103

Please give the result for N=C(N)NCCC[C@@H](NC(=O)CCCCCNC(=O)Cn1cnc2c(I)c(I)c(I)c(I)c21)C(=O)N[C@H](CCCNC(=N)N)C(=O)N[C@H](CCCNC(=N)N)C(=O)N[C@H](CCCNC(=N)N)C(=O)N[C@H](CCCNC(=N)N)C(=O)N[C@H](CCCNC(=N)N)C(=O)N[C@H](CCCCN)C(N)=O [ARC-3125, TIBI-CH2-C(=O)-Ahx-(D-Arg)6-D-Lys-NH2] too. 108

Please give the result for N=C(N)NCCC[C@@H](NC(=O)CNC(=O)[C@@H](CCCNC(=N)N)NC(=O)[C@@H](CCCNC(=N)N)NC(=O)Cn1cc(CNCc2nc3c(sc4ccc(Br)cc43)c(=O)[nH]2)nn1)C(=O)N[C@H](CCCCN)C(N)=O [Compound 3, BBTP-Amt-(D-Arg)2-Gly-D-Arg-D-Lys-NH2] too. 95
